Items are presented alongside their recorded Relative max induction (polar bear vs human).
System: Polar bear PXR
Conditions: polar bear and human
Format: numeric value only, no unit, no commentary.

Example results:
ClC1=C(Cl)[C@]2(Cl)[C@@H]3[C@@H]4C[C@@H]([C@H]5O[C@@H]45)[C@@H]3[C@@]1(Cl)C2(Cl)Cl
0.5
C[Si]1(C)O[Si](C)(C)O[Si](C)(C)O1
0.6

Briefly, Relative max induction (polar bear vs human) measured for "Oc1c(Cl)c(Cl)c(Cl)c(Cl)c1Cl" : 0.9

Briefly, Relative max induction (polar bear vs human) measured for COc1ccc2[nH]c([S+]([O-])Cc3ncc(C)c(OC)c3C)nc2c1 (stereo not shown) [Omeprazole, reference compound] : 0.3

Briefly, Relative max induction (polar bear vs human) measured for CC(=O)N1CCN(c2ccc(OCC3COC(Cn4ccnc4)(c4ccc(Cl)cc4Cl)O3)cc2)CC1 (stereo not shown) [Ketoconazole, reference compound] : 0.3

Briefly, Relative max induction (polar bear vs human) measured for NC(=O)N1c2ccccc2C=Cc2ccccc21 [Carbamazepine, reference compound] : 0.6

Briefly, Relative max induction (polar bear vs human) measured for O=S1OCC2C(CO1)C1(Cl)C(Cl)=C(Cl)C2(Cl)C1(Cl)Cl (stereo not drawn) [Endosulfan (α+β ~ 2:1), Endosulfan] : 1.1

Hey, just so you know, these numbers are from paper PMC4387200.
